molecular target: UniProt Q9Y616; experiment: KINOMEscan competition binding; details: compound 10.0 µM
Sequence (Q9Y616 whole entry, looked up): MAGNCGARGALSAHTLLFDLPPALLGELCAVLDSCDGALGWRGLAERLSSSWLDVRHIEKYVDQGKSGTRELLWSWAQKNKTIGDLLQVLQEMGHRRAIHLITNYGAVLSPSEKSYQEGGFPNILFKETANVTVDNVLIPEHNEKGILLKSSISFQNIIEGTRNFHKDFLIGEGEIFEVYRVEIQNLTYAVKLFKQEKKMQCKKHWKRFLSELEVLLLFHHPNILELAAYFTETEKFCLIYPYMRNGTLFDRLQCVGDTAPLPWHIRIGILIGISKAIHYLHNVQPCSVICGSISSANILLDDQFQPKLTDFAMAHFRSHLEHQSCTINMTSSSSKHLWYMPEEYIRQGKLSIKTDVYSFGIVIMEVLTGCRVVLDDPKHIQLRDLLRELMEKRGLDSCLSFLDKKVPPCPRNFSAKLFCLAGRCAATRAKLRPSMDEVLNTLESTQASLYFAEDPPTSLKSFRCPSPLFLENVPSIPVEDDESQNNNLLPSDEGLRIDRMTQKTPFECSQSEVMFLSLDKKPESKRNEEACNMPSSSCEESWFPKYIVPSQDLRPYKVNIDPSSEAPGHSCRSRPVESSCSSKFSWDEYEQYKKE
observedProperty: kinase still bound, per cent of control (%)

For orientation, consider the following solved cases.
structureSmiles	targetEntity	observedProperty	readingUnit	readoutValue
COc1ccc(CNC(=O)Nc2ncc([N+](=O)[O-])s2)cc1	UniProt Q9Y616	kinase still bound, per cent of control	%	100
Cc1cnc(-c2cnc(NCCNc3ccc(C#N)cn3)nc2-c2ccc(Cl)cc2Cl)[nH]1	UniProt Q9Y616	kinase still bound, per cent of control	%	100

(A) Cn1cc(C2=C(c3ccc(Cl)cc3Cl)C(=O)NC2=O)c2ccccc21
(B) O=C1Nc2cc(Br)ccc2/C1=C1/Nc2ccccc2/C1=N\O
Request: I need your help: which of the pair A , B has higher kinase still bound, per cent of control? Provide the label of your selected option as the answer.
Result: A
(A: 100%, B: 26%)

* * *

target: MAPK11 (human) (UniProt Q15759); experiment: KINOMEscan competition binding; conditions: compound 10.0 µM
Sequence (Q15759 whole entry, looked up): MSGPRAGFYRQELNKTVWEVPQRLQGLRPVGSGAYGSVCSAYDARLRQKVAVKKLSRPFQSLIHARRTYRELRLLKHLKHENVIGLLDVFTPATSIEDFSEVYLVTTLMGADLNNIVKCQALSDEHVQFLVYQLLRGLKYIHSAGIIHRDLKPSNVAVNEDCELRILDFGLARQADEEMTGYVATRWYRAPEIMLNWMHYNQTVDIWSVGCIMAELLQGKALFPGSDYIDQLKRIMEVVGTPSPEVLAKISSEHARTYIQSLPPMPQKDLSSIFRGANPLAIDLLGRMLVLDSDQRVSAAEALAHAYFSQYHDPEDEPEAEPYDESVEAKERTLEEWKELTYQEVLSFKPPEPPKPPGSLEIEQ
observedProperty: kinase still bound, per cent of control (%)

structureSmiles	readingUnit	kinase still bound, per cent of control
COc1ccc(CNC(=O)Nc2ncc([N+](=O)[O-])s2)cc1	%	100
Cc1cnc(-c2cnc(NCCNc3ccc(C#N)cn3)nc2-c2ccc(Cl)cc2Cl)[nH]1	%	100
O=C1Nc2cc(Br)ccc2/C1=C1/Nc2ccccc2/C1=N\O	%	100
Cn1cc(C2=C(c3ccc(Cl)cc3Cl)C(=O)NC2=O)c2ccccc21	%	98

* * *

target: RIOK3 (human); assay: KINOMEscan competition binding; details: compound 10.0 µM
observedProperty: kinase still bound, per cent of control (%)

structureSmiles	readoutValue
Cn1cc(C2=C(c3ccc(Cl)cc3Cl)C(=O)NC2=O)c2ccccc21	65
Cc1cnc(-c2cnc(NCCNc3ccc(C#N)cn3)nc2-c2ccc(Cl)cc2Cl)[nH]1	100

(a) O=C1Nc2cc(Br)ccc2/C1=C1/Nc2ccccc2/C1=N\O
(b) COc1ccc(CNC(=O)Nc2ncc([N+](=O)[O-])s2)cc1
Request: I need your help: which of the pair a , b has higher kinase still bound, per cent of control? Provide the label of your selected option as the answer.
Result: b

* * *

molecular target: TEK (human) (UniProt Q02763); assay: KINOMEscan competition binding; settings: compound 10.0 µM
Sequence (Q02763 whole entry, looked up): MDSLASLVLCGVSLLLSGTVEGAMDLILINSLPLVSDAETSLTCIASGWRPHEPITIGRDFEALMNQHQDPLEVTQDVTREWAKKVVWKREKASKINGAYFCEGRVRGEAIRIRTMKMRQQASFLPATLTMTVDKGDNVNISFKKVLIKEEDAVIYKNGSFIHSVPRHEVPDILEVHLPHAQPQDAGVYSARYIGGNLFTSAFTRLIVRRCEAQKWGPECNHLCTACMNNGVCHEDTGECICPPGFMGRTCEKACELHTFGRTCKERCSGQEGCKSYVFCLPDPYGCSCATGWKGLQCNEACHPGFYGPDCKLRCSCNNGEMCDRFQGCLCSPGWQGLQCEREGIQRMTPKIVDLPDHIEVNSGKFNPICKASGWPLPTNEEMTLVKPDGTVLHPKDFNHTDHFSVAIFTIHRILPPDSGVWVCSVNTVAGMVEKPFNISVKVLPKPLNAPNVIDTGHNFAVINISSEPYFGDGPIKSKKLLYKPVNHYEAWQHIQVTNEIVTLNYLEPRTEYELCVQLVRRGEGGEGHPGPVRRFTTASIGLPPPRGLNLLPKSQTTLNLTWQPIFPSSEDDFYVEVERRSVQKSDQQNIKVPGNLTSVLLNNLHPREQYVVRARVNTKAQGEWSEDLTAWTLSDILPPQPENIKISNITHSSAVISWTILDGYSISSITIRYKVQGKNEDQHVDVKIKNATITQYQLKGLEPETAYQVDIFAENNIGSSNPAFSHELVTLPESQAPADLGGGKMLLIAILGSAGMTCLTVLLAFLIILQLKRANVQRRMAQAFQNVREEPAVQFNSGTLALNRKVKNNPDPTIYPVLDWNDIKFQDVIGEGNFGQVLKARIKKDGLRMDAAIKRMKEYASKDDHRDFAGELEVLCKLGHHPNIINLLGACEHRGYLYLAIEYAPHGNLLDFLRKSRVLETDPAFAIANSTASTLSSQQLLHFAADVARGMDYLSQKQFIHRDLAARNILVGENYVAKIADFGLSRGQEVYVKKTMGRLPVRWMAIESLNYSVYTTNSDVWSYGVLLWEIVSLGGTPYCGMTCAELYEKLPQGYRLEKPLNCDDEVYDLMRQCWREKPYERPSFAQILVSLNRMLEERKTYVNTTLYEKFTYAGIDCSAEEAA
observedProperty: kinase still bound, per cent of control (%)

structureSmiles	observedProperty	readingUnit	readoutValue
O=C1Nc2cc(Br)ccc2/C1=C1/Nc2ccccc2/C1=N\O	kinase still bound, per cent of control	%	78
COc1ccc(CNC(=O)Nc2ncc([N+](=O)[O-])s2)cc1	kinase still bound, per cent of control	%	78
Cc1cnc(-c2cnc(NCCNc3ccc(C#N)cn3)nc2-c2ccc(Cl)cc2Cl)[nH]1	kinase still bound, per cent of control	%	100
Cn1cc(C2=C(c3ccc(Cl)cc3Cl)C(=O)NC2=O)c2ccccc21	kinase still bound, per cent of control	%	73

* * *

target: ACVR1 (human) (UniProt Q04771); assay: KINOMEscan competition binding; conditions: compound 10.0 µM
Sequence (Q04771 whole entry, looked up): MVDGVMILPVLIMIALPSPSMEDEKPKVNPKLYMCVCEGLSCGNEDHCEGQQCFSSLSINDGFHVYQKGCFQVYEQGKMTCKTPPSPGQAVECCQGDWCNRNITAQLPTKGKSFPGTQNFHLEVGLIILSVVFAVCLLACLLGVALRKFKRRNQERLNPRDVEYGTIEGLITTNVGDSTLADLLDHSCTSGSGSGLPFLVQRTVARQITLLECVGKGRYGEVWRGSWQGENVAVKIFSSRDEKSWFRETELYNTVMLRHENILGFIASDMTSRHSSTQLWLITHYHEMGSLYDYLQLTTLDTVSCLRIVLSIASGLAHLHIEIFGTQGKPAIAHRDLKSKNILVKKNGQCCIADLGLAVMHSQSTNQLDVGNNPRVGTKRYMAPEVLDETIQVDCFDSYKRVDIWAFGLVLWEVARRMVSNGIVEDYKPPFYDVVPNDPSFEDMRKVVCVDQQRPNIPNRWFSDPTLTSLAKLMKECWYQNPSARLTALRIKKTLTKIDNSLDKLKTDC
observedProperty: kinase still bound, per cent of control (%)

For orientation, consider the following solved cases.
structureSmiles	readoutValue
Cn1cc(C2=C(c3ccc(Cl)cc3Cl)C(=O)NC2=O)c2ccccc21	100
Cc1cnc(-c2cnc(NCCNc3ccc(C#N)cn3)nc2-c2ccc(Cl)cc2Cl)[nH]1	100

(A) O=C1Nc2cc(Br)ccc2/C1=C1/Nc2ccccc2/C1=N\O
(B) COc1ccc(CNC(=O)Nc2ncc([N+](=O)[O-])s2)cc1
Request: // pick min by kinase still bound, per cent of control: A , B Provide the label of your selected option as the answer.
Result: A
